B1: HEEH_KT_rd6_0007 (parent)
chain: SIEEEIKKAEEAKEKGKTFIHGDFVATTEELLDELLKRLRKKL

Variants of: B1
Experimental Protocol: folding stability dG (cDNA display proteolysis); higher = more stable
Particulars: PBS, room temperature
Quantity Kind: folding stability dG (kcal/mol)
Give bare numbers, in kcal/mol.

In the examples that follow, each entry is paired with its recorded folding stability dG.
[[record]]
change = "S1P"
quantity_kind = "folding stability dG"
reported = 1.01

[[record]]
change = "T18D"
quantity_kind = "folding stability dG"
reported = 0.988

[[record]]
change = "I20Y"
quantity_kind = "folding stability dG"
reported = 1.02


In the following, a different variant is considered.
Using the record for E34H , report its folding stability dG.
1.02
